assay: Cytostatic effect on NHDF cells in the anti-HCMV cytopathogenicity test; format: cell-based; settings: NHDF cells (human prepuce fibroblasts), 6 days incubation, visual assessment, concentration at which no visible cytostatic effects are evident
Assay metric: CC50 at 6 days (µM)
Numeric only. Scale: µM

Completed entries (count: 3):
O=C(Nc1ccc(OC(F)(F)F)cc1)Nc1cn(Cc2ccc(C(F)(F)F)cc2)c(C(=O)NCCOC(=O)CN2CCOCC2)n1; 4.7
COc1ccc(C(C)NC(=O)c2nc(NC(=O)Nc3ccc(C)c(F)c3)cn2C)cn1 (stereo not shown); 94
Cc1cc(Cl)ccc1NC(=O)Nc1cn(CC2CC2)c(C(=O)NCCCn2cccn2)n1; 25

Could you now look at the following compound, please?
According to the records, this compound "COc1ccc(CNC(=O)c2nc(NC(=O)Nc3ccc(OC(F)(F)F)cc3)cn2CC2CC2)cc1" displays CC50 at 6 days of 3.13
